Data provenance is paper PMC6332122.

# tested system: PDGF-BB (UniProt P01127 82-190)
# Sequence (P01127 82-190): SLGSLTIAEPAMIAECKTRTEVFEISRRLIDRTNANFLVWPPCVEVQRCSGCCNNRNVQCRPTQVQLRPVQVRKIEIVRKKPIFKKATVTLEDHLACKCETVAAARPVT
# method description: SPR; SPR: PBS (137 mM NaCl, 2.7 mM KCl, 8 mM Na2HPO4, 2 mM KH2PO4) pH 7.4, 25 °C, protein on CM5; EMSA: 50 mM Tris-HCl, 100 mM KCl, pH 7.5, room temperature, 1 uM RNA, 15% PAGE in TBE
# condition info: protein: commercial; chain copies: 2; label: 5' fluorescein for EMSA; none for SPR; parallel G4
measured quantity: Kd (nM)
Please state the figure in nM; there is no need to write the unit.

For reference, reported Kd for GGGGGCGGGAGCCAGAGACCAGUGGGCAGGG (structured_RNA) [VEGFA intronic G4_1] stands at 40
